Recorded values, source paper PMC8159961.

Target Entity: human 5-HT7b receptor (Homo sapiens, UniProt P34969)
Construct: expressed in transfected cells
Sequence (P34969 1-432): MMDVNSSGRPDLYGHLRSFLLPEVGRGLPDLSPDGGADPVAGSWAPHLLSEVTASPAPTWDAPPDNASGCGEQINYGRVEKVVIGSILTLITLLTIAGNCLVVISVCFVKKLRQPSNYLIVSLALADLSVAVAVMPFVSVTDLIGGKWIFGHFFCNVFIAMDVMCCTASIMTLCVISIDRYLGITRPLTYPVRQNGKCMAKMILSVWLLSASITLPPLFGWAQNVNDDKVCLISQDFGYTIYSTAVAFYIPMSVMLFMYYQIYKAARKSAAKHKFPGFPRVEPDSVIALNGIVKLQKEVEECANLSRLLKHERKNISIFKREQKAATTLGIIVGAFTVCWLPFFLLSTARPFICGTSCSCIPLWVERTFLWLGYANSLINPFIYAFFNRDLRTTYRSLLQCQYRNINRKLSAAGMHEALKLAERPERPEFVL
Assay Name: GPCR radioligand binding assay, [3H]-5-CT displacement, HEK293 membranes
Test Settings: 5-HT7; average of exp_1 and exp_2

Compound: CCc1nccn1CC(=O)O [G11]
%inh 5-HT7 average / %: -3.32

Compound: NC(c1ccccc1)c1ccccc1 [C3]
%inh 5-HT7 average / %: -9

Compound: CCn1cnc2ccccc21 [D4]
%inh 5-HT7 average / %: -5.34

Compound: O=C1CC(CSc2ccc(Cl)cc2)=NN1 [H8]
%inh 5-HT7 average / %: -7

Compound: O=C1CCCc2occc21 [B3]
%inh 5-HT7 average / %: -2.76

Compound: Clc1ccc2nnnn2n1 [E6]
%inh 5-HT7 average / %: -13

Compound: Cc1ccc(C)n1Cc1ccccc1Cl [D6]
%inh 5-HT7 average / %: -5.55

Compound: COc1cccc(NC2=NCCCCC2)c1 [E8]
%inh 5-HT7 average / %: -5

Compound: O=C(NC1CC1)c1ccccc1O [G4]
%inh 5-HT7 average / %: -12

Compound: CN(C)c1cc(CN)ccn1 [G3]
%inh 5-HT7 average / %: -18

Compound: O=c1[nH]ncc2c1oc1ccccc12 [B6]
%inh 5-HT7 average / %: -4

Compound: C1=C[C@H]2O[C@@H]1c1ccccc12 [C11]
%inh 5-HT7 average / %: -8

Compound: c1cnc2c(c1)NCCC2 [E7]
%inh 5-HT7 average / %: -3.73

Compound: CN1CC(=O)NC1=O [B10]
%inh 5-HT7 average / %: -7.6

Compound: CC(=O)c1ccc2c(c1)CCCN2 [C7]
%inh 5-HT7 average / %: -16

###

Target Entity: human 5-HT6 receptor (Homo sapiens)
Construct: expressed in transfected cells
Sequence (P50406 whole entry): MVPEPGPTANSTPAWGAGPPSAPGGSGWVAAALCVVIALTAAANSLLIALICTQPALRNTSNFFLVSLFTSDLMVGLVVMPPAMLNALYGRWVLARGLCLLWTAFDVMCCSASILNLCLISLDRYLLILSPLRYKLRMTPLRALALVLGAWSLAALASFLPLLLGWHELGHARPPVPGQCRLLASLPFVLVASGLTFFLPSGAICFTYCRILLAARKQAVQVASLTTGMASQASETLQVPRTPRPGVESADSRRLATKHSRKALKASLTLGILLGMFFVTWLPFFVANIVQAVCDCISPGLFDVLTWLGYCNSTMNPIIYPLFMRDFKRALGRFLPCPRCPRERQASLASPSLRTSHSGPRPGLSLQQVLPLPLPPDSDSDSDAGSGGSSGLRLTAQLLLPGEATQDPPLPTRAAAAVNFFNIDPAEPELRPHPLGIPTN
Assay Name: GPCR radioligand binding assay, [3H]-LSD displacement, HEK293 membranes
Test Settings: 5-HT6; average of exp_1 and exp_2; read-out: %inh 5-HT6 average

Compound Structure String: Nc1nnc(-c2cccs2)[nH]1
Quantity Unit: %
inhibition at 10 µM: 52

Compound Structure String: c1cnc2ncccc2c1
Quantity Unit: %
inhibition at 10 µM: 48

Compound Structure String: c1cnc2cccnc2c1
Quantity Unit: %
inhibition at 10 µM: 24

Compound Structure String: Oc1ccccc1N1CCCCC1
Quantity Unit: %
inhibition at 10 µM: 55

Compound Structure String: c1ccc(Nc2nncs2)cc1
Quantity Unit: %
inhibition at 10 µM: 1.55

Compound Structure String: O=C(O)c1cnc(-c2ccccc2)s1
Quantity Unit: %
inhibition at 10 µM: 41

Compound Structure String: Nc1nnc2ccccn12
Quantity Unit: %
inhibition at 10 µM: 40

Compound Structure String: Cn1c(N)nc2ccccc21
Quantity Unit: %
inhibition at 10 µM: 25

Compound Structure String: CS(=O)(=O)Nc1ccc(C(=O)O)cc1
Quantity Unit: %
inhibition at 10 µM: 38

###

Target Entity: human 5-HT7b receptor (Homo sapiens, UniProt P34969)
Construct: expressed in transfected cells
Assay Name: GPCR radioligand binding assay, [3H]-5-CT displacement, HEK293 membranes
Test Settings: 5-HT7; replicate exp_1

Molecule: N#CC1CCS(=O)(=O)C1 (centres unmarked)
%inh 5-HT7 exp_1: 21%
//
Molecule: C1=C[C@H]2O[C@@H]1c1ccccc12
%inh 5-HT7 exp_1: -5.66%
//
Molecule: COc1ccc(C2=CCNCC2)cc1
%inh 5-HT7 exp_1: 17%
//
Molecule: O=C1CCN(c2ccncc2)CC1
%inh 5-HT7 exp_1: -1.58%
//
Molecule: Nc1ccc(-c2ccccc2)cc1C(=O)O
%inh 5-HT7 exp_1: 16%
//
Molecule: Cc1ccc(CCNc2ccccc2)cn1
%inh 5-HT7 exp_1: -13%
//
Molecule: c1ccc2c(N3CCNCC3)ccnc2c1
%inh 5-HT7 exp_1: 17%
//
Molecule: CCc1nccn1CC(=O)O
%inh 5-HT7 exp_1: -14%
//
Molecule: O=C(CN1CCNCC1)c1ccccc1
%inh 5-HT7 exp_1: 14%
//
Molecule: O=C(O)c1cccc(Nc2ncccn2)c1
%inh 5-HT7 exp_1: 11%
//
Molecule: CC(=O)c1ccc2c(c1)CNCC2
%inh 5-HT7 exp_1: 8%
//
Molecule: COc1cccc(NC2=NCCCCC2)c1
%inh 5-HT7 exp_1: 3.36%
//
Molecule: O=C1CCN(c2ccccn2)CC1
%inh 5-HT7 exp_1: 34%
//
Molecule: O=C1CC(CSc2ccc(Cl)cc2)=NN1
%inh 5-HT7 exp_1: -1%
